Experiment: protein stability index of a GFP-peptide fusion (GPS, HEK-293T) (PSI 1-6); higher = more stable;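 further: 24-mer peptide tiles fused after GFP, lentivirally expressed, FACS-sorted into six equal bins by GFP/DsRed ratio, decoded by Illumina sequencing, PSI is the read-weighted mean bin number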
Conditions: treatment: MLN4924 1 uM, 8 h; c terminus: a fixed tail appended
Classify on protein stability index using lower = under 3, middle = from 3 up to 4, upper = 4 and over

Asked: Field: class (protein stability index) — entry: AWFFSKTEELNKEVASNTEMIQTS [KRT15]
Given back: middle

Asked: Field: class (protein stability index) — entry: SMAMEYFDEKIVPILKRKLPGSDV [FBXO28]
Given back: middle

Asked: Field: class (protein stability index) — entry: HQRTHSEEETYKCLECGKSFCHGS [ZNF449]
Given back: upper

Asked: Field: class (protein stability index) — entry: TPPPSPNTQTPVQPPPPPPPPPMQ [CCDC6]
Given back: upper

Asked: Field: class (protein stability index) — entry: PQKSYFIRLYGLQAGRLLWEQELY [WAS]
Given back: lower

* * *

Assay: protein stability index of a GFP-peptide fusion (GPS, HEK-293T) (PSI 1-6); higher = more stable
Details: treatment: MLN4924 1 uM, 8 h; c terminus: a fixed tail appended
readout: protein stability index
Keep the answer to the number alone.

# annotated cases, reported protein stability index shown
The measured protein stability index associated with TLNQLQSLQNSLECAMETTEEQTR [NECAB1] reads 4.97

The measured protein stability index associated with DSGASAITRESHTHRDRPSQQQPL [CSNK1G1] reads 5.15

The measured protein stability index associated with PVVSAVWGHCEIRMRYLNGLDPEP [SPSB1] reads 1.98

The measured protein stability index associated with DEDSEPEREVRAKNGRVDSEDRRS [USP39] reads 5.52

New cases:
The measured protein stability index associated with TVGGEERVSRKPTAAMRCMCPLYD [GAN] reads 3.46

The measured protein stability index associated with CGWPRGKDAPCYESDTDIYETVAA [DRICH1] reads 3.31

The measured protein stability index associated with STSLSFLDSCNSLTPKSTPVKTLP [MYBL2] reads 3.97

The measured protein stability index associated with LVGKPKIFIIQACRGNQHDVPVIP [CASP6] reads 2.1

The measured protein stability index associated with QQQIHHIKNLYAFNLFCQKRFDES [VPS39] reads 2.42

* * *

Assay: protein stability index of a GFP-peptide fusion (GPS, HEK-293T) (PSI 1-6); higher = more stable
Conditions: treatment: MLN4924 1 uM, 8 h; c terminus: a fixed tail appended
protein stability index of 3 or higher: Criterion met. Under 3: Criterion not met.

Asked: Record NVSLGPGVVVEDGVCIRRCTVLRD [GMPPB] ; criterion: protein stability index no lower than 3. Met?
Given back: Criterion met

Attention now shifts to the item below.
Asked: Record GSKGEKDLGASSLHVNGESLEMDS [EHMT1] ; criterion: protein stability index no lower than 3. Met?
Given back: Criterion met

* * *

Assay: protein stability index of a GFP-peptide fusion (GPS, HEK-293T) (PSI 1-6); higher = more stable
Details: treatment: MLN4924 1 uM, 8 h; c terminus: a fixed tail appended
protein stability index of 3 or higher: true (1). Under 3: false (0).

Asked: Record LEVKIRDWYQRQRPSEIKDYSPYF [KRT16] ; criterion: protein stability index no lower than 3. Met?
Given back: false (0)

Asked: Record RPLARPIKPNEILPPEKGREVAKE [RHOBTB2] ; criterion: protein stability index no lower than 3. Met?
Given back: true (1)

Asked: Record LHLESELAQTRAEGQRQAQEYEAL [KRT18] ; criterion: protein stability index no lower than 3. Met?
Given back: true (1)

Asked: Record HGVDLSALRGAAVDEYFRQPVVDT [CARM1] ; criterion: protein stability index no lower than 3. Met?
Given back: true (1)

Asked: Record TPLHLDLTQLHRLSLESSPDAPDH [PLEKHN1] ; criterion: protein stability index no lower than 3. Met?
Given back: true (1)

New cases:
Asked: Record SNPNGNGGFMGYSAENIPGCSSSG [CRY1] ; criterion: protein stability index no lower than 3. Met?
Given back: true (1)

Asked: Record ADWAVMDVVNYFRTVGFEEQASAF [SAMD13] ; criterion: protein stability index no lower than 3. Met?
Given back: false (0)

Asked: Record MYDEKAHEWKSLAPMDAPRYQHGI [KLHL13] ; criterion: protein stability index no lower than 3. Met?
Given back: true (1)

Asked: Record YFLLCDVLPEDRILREELQKQRLR [ZNF277] ; criterion: protein stability index no lower than 3. Met?
Given back: false (0)

Asked: Record EDSDVEMVEDDSRKEMTAACTPRR [MLH1] ; criterion: protein stability index no lower than 3. Met?
Given back: true (1)

Asked: Record VKTWFQNQRMKSKRWQKNNWPKNS [NANOGP8] ; criterion: protein stability index no lower than 3. Met?
Given back: false (0)

Asked: Record KNGLSFIETSALDSTNVEAAFQTI [RAB11A] ; criterion: protein stability index no lower than 3. Met?
Given back: true (1)

Asked: Record EMFTKPVVILPCQHNLCRKCASDI [TRIM55] ; criterion: protein stability index no lower than 3. Met?
Given back: false (0)

Asked: Record ELPNIKREISETEAKALLKERQKK [TFE3] ; criterion: protein stability index no lower than 3. Met?
Given back: true (1)
